Hello, the source for this data is PubChem BioAssay AID463173, in case you need it.

System: DeltatarO mutant
PROTOCOL DETAILS: S. aureus survival, RN4220 and DeltatarO strains – OD600, teichoic acid synthesis inhibitors, primary screen (AID 463173)
CONDITION SUMMARY: S. aureus RN4220 wild type/DeltatarO growth, OD600, 18 h, screened at 18.75 µg/mL (by protocol)
The whole screen tested about 52,000 compounds, of which about 4,300 (8.3%) were called active. No stated cut-off is given here; in the data, active means survival mostly below about 52% (no sharp cut-off); inactive means mostly above about 56%. For the sample, actives were picked, then their nearest neighbours and some compounds at random.
Your answer must be one of the following: active, inactive

# input What outcome does the record of this test show for CCOc1ccc(CCNC(=O)CCCc2nnc3n(C)c(=O)c4sccc4n23)cc1OCC ?
# output inactive

# input What outcome does the record of this test show for COc1cccc(NC(=O)CSc2nnc3scc(-c4ccc(Cl)cc4)n23)c1 ?
# output inactive

# input What outcome does the record of this test show for O=C(CSc1nnc2scc(-c3ccccc3)n12)Nc1ccc(Cl)cc1 ?
# output inactive

# input What outcome does the record of this test show for Cc1cccc(NC(=O)CSc2nnc3scc(-c4ccccc4)n23)c1 ?
# output active

# input What outcome does the record of this test show for COc1ccc(-c2cc(C(F)(F)F)n3nc(C(=O)O)c(Cl)c3n2)cc1OC ?
# output inactive

# input What outcome does the record of this test show for O=C(CSc1nnc2scc(-c3ccc(Cl)cc3)n12)Nc1cccc(C(F)(F)F)c1 ?
# output inactive

# input What outcome does the record of this test show for Cc1ccc(NC(=O)CSc2nnc3scc(-c4ccccc4)n23)cc1 ?
# output active

# input What outcome does the record of this test show for CC(C)(C)c1ccc(NC(=O)CSc2nnc3scc(-c4ccccc4)n23)cc1 ?
# output active

# input What outcome does the record of this test show for CC(=O)Nc1ccc(C(=O)CSc2nnc3scc(-c4ccccc4)n23)cc1 ?
# output inactive

# input What outcome does the record of this test show for CC(Sc1nccn1C)C(=O)Nc1ccccc1C#N (stereo not given) ?
# output inactive
